assay: Antagonist activity at CCR9 receptor (unknown origin) by serum chemotaxis assay
reported property: IC50

input: If you can, please state the reported IC50 value of CC(C)(C)c1ccc(S(=O)(=O)Nc2ccc(Cl)cc2-c2nccnc2NCCO)cc1 .
output: 0.17 µM
